- Tested on: hepatocytes
- protocol: Hepatocyte stability assay (mouse)
- Assay type: in vitro ADME
- condition info: 10 μM compound, 0.5×10^6 cells/mL, 60 minutes
Hi there, I'd appreciate the recorded CIint (μL min^−1 10^−6 cells) for every entry that follows.
The reply should contain only the number, in μL min^−1 10^−6 cells.

I'm curious: which CIint (μL min^−1 10^−6 cells) was measured for C=C(CC(=O)OCCCCCCCC)C(=O)OCCC(=O)O [Example 80] tested on hepatocytes? 158

I'm curious: which CIint (μL min^−1 10^−6 cells) was measured for C=C(CC(=O)OC1CCCCCCC1)C(=O)OCCC(=O)O [Example 82] tested on hepatocytes? 52

I'm curious: which CIint (μL min^−1 10^−6 cells) was measured for C=C(CC(=O)OCCCCCC)C(=O)OCC(=O)O [Example 94] tested on hepatocytes? 60

I'm curious: which CIint (μL min^−1 10^−6 cells) was measured for C=C(CC(=O)OC1CCCCC1)C(=O)OCCC(=O)O [Example 87] tested on hepatocytes? 21

I'm curious: which CIint (μL min^−1 10^−6 cells) was measured for C=C(CC(=O)OC1CCCCC1)C(=O)OCc1nnn[nH]1 [Example 125] tested on hepatocytes? 101

I'm curious: which CIint (μL min^−1 10^−6 cells) was measured for C=C(CC(=O)O[C@@H](C)CCCCCC)C(=O)OCC(=O)O [Example 89] tested on hepatocytes? 198

I'm curious: which CIint (μL min^−1 10^−6 cells) was measured for C=C(CC(=O)OC(C)(C)CCCCC)C(=O)OCC(=O)O [Example 193] tested on hepatocytes? 79

I'm curious: which CIint (μL min^−1 10^−6 cells) was measured for C=C(CC(=O)OC(C)(C)CCCCCC)C(=O)OCC(=O)O [Example 192] tested on hepatocytes? 350

I'm curious: which CIint (μL min^−1 10^−6 cells) was measured for C=C(CC(=O)O[C@H](C)CCCCCC)C(=O)OCCC(=O)O [Example 88] tested on hepatocytes? 297

I'm curious: which CIint (μL min^−1 10^−6 cells) was measured for C=C(CC(=O)O[C@@H](CCCCCC)C(F)(F)F)C(=O)OCC(=O)O [Example 182] tested on hepatocytes? 187

I'm curious: which CIint (μL min^−1 10^−6 cells) was measured for C=C(CC(=O)O[C@@H](C)CCCCCC)C(=O)OCCc1nnn[nH]1 [Example 129] tested on hepatocytes? 378

I'm curious: which CIint (μL min^−1 10^−6 cells) was measured for C=C(CC(=O)OC1C(C)(C)CC1(C)C)C(=O)OCC(=O)O [Example 169] tested on hepatocytes? 38

I'm curious: which CIint (μL min^−1 10^−6 cells) was measured for C=C(CC(=O)O[C@H](C)CCCCCC)C(=O)OCC(=O)O [Example 112] tested on hepatocytes? 255

I'm curious: which CIint (μL min^−1 10^−6 cells) was measured for C=C(CC(=O)OCCCCCCCC)C(=O)O [4-octyl itaconate, 4-Octyl itaconate, reference compound] tested on hepatocytes? 351

I'm curious: which CIint (μL min^−1 10^−6 cells) was measured for C=C(CC(=O)O[C@@H](CC)CCCCC)C(=O)OCC(=O)O [Example 170] tested on hepatocytes? 64

I'm curious: which CIint (μL min^−1 10^−6 cells) was measured for C=C(CC(=O)O[C@@H](C)CCCCCC)C(=O)OCCC(=O)O [Example 84] tested on hepatocytes? 220

I'm curious: which CIint (μL min^−1 10^−6 cells) was measured for C=C(CC(=O)OC1CCCCCCC1)C(=O)OCc1nnn[nH]1 [Example 134] tested on hepatocytes? 256

I'm curious: which CIint (μL min^−1 10^−6 cells) was measured for C=C(CC(=O)O[C@H]1C[C@H]2CC[C@]1(C)C2(C)C)C(=O)OCC(=O)O [Example 179] tested on hepatocytes? 129

I'm curious: which CIint (μL min^−1 10^−6 cells) was measured for C=C(CC(=O)OC1CCCCCCC1)C(=O)OCC(=O)O [Example 90] tested on hepatocytes? 47

I'm curious: which CIint (μL min^−1 10^−6 cells) was measured for C=C(CC(=O)OC1CCCCCCC1)C(=O)OC(C)c1nnn[nH]1 (stereo not shown) [Example 133] tested on hepatocytes? 107

I'm curious: which CIint (μL min^−1 10^−6 cells) was measured for C=C(CC(=O)OCCCCCCCC)C(=O)OCC(=O)O [Example 49] tested on hepatocytes? 138

I'm curious: which CIint (μL min^−1 10^−6 cells) was measured for C=C(CC(=O)OC1CCCCC1)C(=O)OCC(=O)O [Example 91] tested on hepatocytes? 29

I'm curious: which CIint (μL min^−1 10^−6 cells) was measured for C=C(CC(=O)OC1CC2(CCC2)C1)C(=O)OCC(=O)O [Example 96] tested on hepatocytes? 112

I'm curious: which CIint (μL min^−1 10^−6 cells) was measured for C=C(CC(=O)O[C@@H](C)CCCCCC)C(=O)OCc1nn[nH]n1 [Example 164] tested on hepatocytes? 259

---

- protocol: Mouse pharmacokinetic study, oral administration
- Type: in vivo
- condition info: male, C57BL/6, mouse, plasma, po, 100 mg/kg, plasma, male C57BL/6 mice, oral gavage 100 mg/kg, 4 h; read-out: Parent compound concentrations following oral administration, Time 4 h
Hi there, I'd appreciate the recorded log10 of concentration at 4 h for every entry that follows.
Lab note - concentration at 4 h converted to log10 from values in ng/mL.

For the compound C=C(CC(=O)O[C@@H](C)CCCCCC)C(=O)OCCC(=O)O , what log10 of concentration at 4 h is on record? 2.57

For the compound C=C(CC(=O)OC1CCCCC1)C(=O)OCC(=O)O , what log10 of concentration at 4 h is on record? 1.52

For the compound C=C(CC(=O)OC1CCCCC1)C(=O)OCCC(=O)O , what log10 of concentration at 4 h is on record? 2.30

For the compound C=C(CC(=O)O[C@@H](C)CCCCCC)C(=O)OCc1nn[nH]n1 , what log10 of concentration at 4 h is on record? 2.58

For the compound C=C(CC(=O)OC1CCCCCCC1)C(=O)OCCC(=O)O , what log10 of concentration at 4 h is on record? 2.75

For the compound C=C(CC(=O)OCCCCCCCC)C(=O)OCCC(=O)O , what log10 of concentration at 4 h is on record? 1.83

---

Hi there, I'd appreciate the recorded log10 of concentration at 0.25 h for every entry that follows.
- protocol: Mouse pharmacokinetic study, intravenous dosing
- Format: in vivo
- condition info: male, C57BL/6, mouse, iv; plasma, 10 mg/kg i.v., time 0.25 h; read-out: Parent compound concentration following intravenous administration
Lab note - concentration at 0.25 h converted to log10 from values in µg/mL.

For the compound C=C(CC(=O)OCCCCCC)C(=O)OCC(=O)NS(=O)(=O)N(C)C , what log10 of concentration at 0.25 h is on record? -2.10

For the compound C=C(CC(=O)O[C@H](CC)CCCCC)C(=O)OCC(=O)O , what log10 of concentration at 0.25 h is on record? 0.75

For the compound C=C(CC(=O)OC1CC2(CCC2)C1)C(=O)OCC(=O)O , what log10 of concentration at 0.25 h is on record? -0.18

For the compound C=C(CC(=O)O[C@@H](C)CCCCCC)C(=O)OCCC(=O)O , what log10 of concentration at 0.25 h is on record? 0.01

For the compound C=C(CC(=O)OC1C(C)(C)CC1(C)C)C(=O)OCC(=O)O , what log10 of concentration at 0.25 h is on record? 0.45

For the compound C=C(CC(=O)OC12CC3CC(CC(C3)C1)C2)C(=O)OCC(=O)O , what log10 of concentration at 0.25 h is on record? 0.42

---

Hi there, I'd appreciate the recorded log10 of concentration at 1 h for every entry that follows.
- protocol: Mouse pharmacokinetic study, oral administration
- Assay type: in vivo
- condition info: male, C57BL/6, mouse, plasma, po, 100 mg/kg, plasma, male C57BL/6 mice, oral gavage 100 mg/kg, 1 h; read-out: Parent compound concentrations following oral administration, Time 1 h
Lab note - concentration at 1 h converted to log10 from values in ng/mL.

For the molecule C=C(CC(=O)OC1CCCCCCC1)C(=O)OC(C)c1nnn[nH]1 (stereo not shown) , what log10 of concentration at 1 h is on record? 3.04

For the molecule C=C(CC(=O)OC1CCCCC1)C(=O)OCC(=O)O , what log10 of concentration at 1 h is on record? 3.28

For the molecule C=C(CC(=O)O[C@@H](C)CCCCCC)C(=O)OCCC(=O)O , what log10 of concentration at 1 h is on record? 3.52

For the molecule C=C(CC(=O)OC1C(C)(C)CC1(C)C)C(=O)OCC(=O)O , what log10 of concentration at 1 h is on record? 3.24

For the molecule C=C(CC(=O)OC1CCCCCCC1)C(=O)OCCC(=O)O , what log10 of concentration at 1 h is on record? 3.53

For the molecule C=C(CC(=O)O[C@@H](CC)CCCCC)C(=O)OCC(=O)O , what log10 of concentration at 1 h is on record? 4.00

For the molecule C=C(CC(=O)OC(CCCC)CCCC)C(=O)OCC(=O)O , what log10 of concentration at 1 h is on record? 3.74

For the molecule C=C(CC(=O)OCCCCCCCC)C(=O)OCC(=O)O , what log10 of concentration at 1 h is on record? 2.54

For the molecule C=C(CC(=O)O[C@@H](C)CCCCCC)C(=O)OCCc1nnn[nH]1 , what log10 of concentration at 1 h is on record? 2.41

For the molecule C=C(CC(=O)OC1CCCCCCC1)C(=O)OCc1nnn[nH]1 , what log10 of concentration at 1 h is on record? 3.30
